Numbers sourced from ChEMBL document CHEMBL2040798.

Assignment: determine reported pIC50 for the given molecules.
- assay overview: Cytotoxicity against human PC3M cells after 48 hrs by MTT assay
- Assay type: functional, cell-based
- experimental conditions: PC-3M
pIC50: −log10 of the molar value.

Reference set, count: 6
- CCCc1nnc(SCC(=O)c2ccc(C)cc2)n1N1C(=O)c2ccccc2C1=O: < 3.70
- COc1cc(-c2nnc(SCc3ccccc3)n2N2C(=O)c3ccccc3C2=O)cc(OC)c1OC: < 3.70
- COc1cc(-c2nnc(SCC(=O)c3ccc(Br)cc3)n2N2C(=O)c3ccccc3C2=O)cc(OC)c1OC: 4.65
- C#CCSc1nnc(CCC)n1N1C(=O)c2ccccc2C1=O: < 3.70
- COc1cc(-c2nnc(SCC(=O)c3ccc(Cl)cc3)n2N2C(=O)c3ccccc3C2=O)cc(OC)c1OC: 4.68
- COc1ccc(C(=O)CSc2nnc(-c3cc(OC)c(OC)c(OC)c3)n2N2C(=O)c3ccccc3C2=O)cc1: 4.48

Lab note: each molecule below needs its pIC50 filled in.
1. COc1cc(-c2nnc(SCC(=O)c3ccccc3C)n2N2C(=O)c3ccccc3C2=O)cc(OC)c1OC
2. Cc1nnc(SCc2ccccc2)n1N1C(=O)c2ccccc2C1=O
3. CCc1nnc(SCC(=O)c2ccc(Cl)cc2)n1N1C(=O)c2ccccc2C1=O

-- reply
< 3.70
< 3.70
< 3.70
